System: Differentiated U937 cells
Experiment: MTT assay: cell viability on exposure to test compounds
Type: cell-based, human
Conditions: percentage loss of cell viability vs vehicle; 1 μg/mL, 4 hr, 5% FCS
Recorded MTT Assay (Viability) 4 h d-U937 values for a group of molecules are listed next.

| SMILES | UNIT_ANNOTATION | MTT Assay (Viability) 4 h d-U937 |
| --- | --- | --- |
| COCC(=O)Nc1cc(Oc2ccc(NC(=O)Nc3cc(C4(C)CC4)nn3-c3ccc(C)cc3)c3ccccc23)ccn1 | % | −7.6 |
| COc1ccc(-n2nc(C(C)(C)C)cc2NC(=O)Nc2ccc(Oc3ccnc(NC(=O)N4CCN(C)CC4)c3)c3ccccc23)cc1 | % | −12.5 |
| COCC(=O)Nc1cc(Oc2ccc(NC(=O)Nc3cc(C(C)(C)C)nn3-c3cc(C)cs3)c3ccccc23)ccn1 | % | 8.2 |
| COCC(=O)Nc1cc(COc2ccc(NC(=O)Nc3cc(C(C)(C)C)nn3-c3ccc(C)cc3)c(C)c2C)ccn1 | % | −2.8 |
| CNC(=O)Nc1cc(Oc2ccc(NC(=O)Nc3cc(C(C)(C)C)nn3-c3ccc(OC)cc3)c(C)c2C)ccn1 | % | 5.3 |
| COCC(=O)Nc1cc(Sc2ccc(NC(=O)Nc3cc(C(C)(C)C)nn3-c3ccc(C)cc3)c3ccccc23)ccn1 | % | 2.7 |
| COCC(=O)Nc1cc(Oc2ccc(NC(=O)Nc3cc(C4CC4)nn3-c3ccc(C)cc3)c3ccccc23)ccn1 | % | −10.8 |
| COCC(=O)Nc1cc(Oc2ccc(NC(=O)Nc3cc(C(C)(C)C)nn3-c3ccc(O)nc3)c3ccccc23)ccn1.Cl | % | −6.1 |
| COCC(=O)Nc1cc(Oc2ccc(NC(=O)Nc3cc(C(C)(C)C)nn3-c3ccc(S(C)(=O)=O)cc3)c3ccccc23)ncn1 | % | −8.0 |
| CNC(=O)Nc1cc(COc2ccc(NC(=O)Nc3cc(C(C)(C)C)nn3-c3ccc(OC)nc3)c(C)c2C)ccn1 | % | 32.5 |
| COCC(=O)Nc1cc(COc2ccc(NC(=O)Nc3cc(C(C)(C)C)nn3-c3ccc(OC)nc3)c(C)c2C)ccn1 | % | 3.5 |
| CNC(=O)Nc1cc(Oc2ccc(NC(=O)Nc3cc(C(C)(C)C)nn3-c3ccc(S(C)(=O)=O)cc3)c3ccccc23)ccn1 | % | −12.6 |
| CC(C)(C)c1cc(NC(=O)Nc2ccc(Oc3ccnc(NC(=O)N4CCOCC4)c3)c3ccccc23)n(-c2ccc(O)c(Cl)c2)n1 | % | −6.2 |
| COc1ccc(-n2nc(C(C)(C)C)cc2NC(=O)Nc2ccc(Oc3ccnc(NC(=O)N4CCOCC4)c3)c3ccccc23)cn1 | % | −12.1 |
| COc1ccc(-n2nc(C(C)(C)C)cc2NC(=O)Nc2ccc(Oc3ccnc(NC(=O)N4CCCC4)c3)c3ccccc23)cc1 | % | −20.1 |
| COCC(=O)Nc1cc(Oc2ccc(NC(=O)Nc3cc(C(C)(C)C)nn3-c3ccc(O)c(Cl)c3)c3ccccc23)ccn1 | % | 8.5 |
| COCC(=O)Nc1cc(Oc2ccc(NC(=O)Nc3cc(C(C)(C)C)nn3-c3ccc(N)cc3)c3ccccc23)ccn1 | % | −26.6 |
| COc1ccc(-n2nc(C(C)(C)C)cc2NC(=O)Nc2ccc(Oc3ccnc(NC(=O)N4CCOCC4)c3)c3ccccc23)cc1 | % | −5.7 |
| COCC(=O)Nc1cc(Oc2ccc(NC(=O)Nc3cc(C(C)(C)C)nn3-c3cccc(O)c3)c3ccccc23)ccn1 | % | 5.8 |
| CNS(=O)(=O)Cc1ccc(-n2nc(C(C)(C)C)cc2NC(=O)Nc2ccc(Oc3ccnc(NC(=O)COC)c3)c3ccccc23)cc1 | % | 1.7 |
| COCC(=O)Nc1cc(Oc2ccc(NC(=O)Nc3cc(C4CCOCC4)nn3-c3ccc(C)cc3)c3ccccc23)ccn1 | % | −23.7 |
| COCC(=O)Nc1cc(Oc2ccc(NC(=O)Nc3cc(C(C)(C)C)nn3-c3cc(OC)cc(OC)c3)c3ccccc23)ccn1 | % | 3.1 |
| COCC(=O)Nc1cc(Oc2ccc(NC(=O)Nc3cc(C(C)(C)C)nn3-c3ccc(Cl)c(Cl)c3)c3ccccc23)ccn1 | % | −16.1 |
| COCC(=O)Nc1cc(Oc2ccc(NC(=O)Nc3cc(C(C)(C)C)nn3-c3cccs3)c3ccccc23)ccn1 | % | 4.8 |
| CNC(=O)Nc1cc(COc2ccc(NC(=O)Nc3cc(C(C)(C)C)nn3-c3ccc(OC)cc3)c(C)c2C)ccn1 | % | 17.2 |
| COCC(=O)Nc1cc(Oc2ccc(NC(=O)Nc3cc(C4(C)CCOCC4)nn3-c3ccc(C)cc3)c3ccccc23)ccn1 | % | −32.6 |
| CN(C)C(=O)Nc1cc(Oc2ccc(NC(=O)Nc3cc(C(C)(C)C)nn3-c3ccc(S(C)(=O)=O)cc3)c3ccccc23)ccn1 | % | −15.4 |
